Provide the reported Fold change (Median) of each item.
System: GSC7 cells
protocol: Nano-Glo Dual-Luciferase Reporter (Nanoglo DLR) assay of enhancer activity, fold change to mCMV
Assay type: cell-based, human
measurement.parameters: expression fold change of the individual enhancer compared to mCMV
One number for each entry, in fold.

Consider the reported Fold change (Median) for these molecules:
{"molecule": "ID3547: enhancer fragment, SEQ ID NO: 13 (nucleic acid) DNA: CGTTCCCCCTTAACAAAAGCCACCTCCTCCCTCCTGAAAGGCACCATTGGTCACCAAAACAAGTCCCCTTTGTCCTCCACCGCAGCTGGAGCCTGGGCCTTCCATCTCCTGGGGGCCAATAAAACCCCAGATCAGCCAATCCTCCCTCCCTGGCTCTGTCA", "endpoint.result": 53.2}
{"molecule": "ID1244: enhancer fragment, SEQ ID NO: 25 (nucleic acid, listed as DNA, chemistry not given here) DNA: ACAGCAGCCAGAGGAAGTGGCTGTGTACAGAGAGCTTTTGTGAGAGAAGAGGGGGAGGGGGAAAGAGCAAAGAAAAAGAAGGAAAGAAGAGAGGGAAGAGGCCAGAGACAGAGAAGGCCAGAGCA", "endpoint.result": 27.8}

Now consider a different molecule.
# molecule ID2339: enhancer fragment, SEQ ID NO: 9 (nucleic acid) DNA: GTCGGCGGAACTGAGTCTCCTTTGTGGAGCCCCTCATTTGCATGATAAACCCCGGGGACAAAGTGTGTTCTTGTTACTTGGACTGTTTCTTGGAAACTGCTGCTACCTGGAGCGAGTGAACACAGGGCAAGTATTCTCGCCCACAGCAACGTGTCATTGA ; its Fold change (Median) = 79.6
